Ref: patent US8871753B2

# target_desc: Recombinant Human Anaplastic Lymphoma Kinase (Homo sapiens)
# Construct: purchased Invitrogen, Carlsbad, Calif
# procedure_summary: ALK HTRF kinase assay
# Assay type: biochemical
# settings: Table B1; cells without percent sign
pIC50: −log10 of the molar value. Counter-ions that a name gives are not always drawn.
quantity_kind: pIC50

INPUT: State measured pIC50 of the compound O=C(Nc1ccc2cc1CCc1cccc(c1)Nc1ncc(Cl)c(n1)N2)c1cccnc1 [Example B30, bis(trifluoroacetate)] with Recombinant Human Anaplastic Lymphoma Kinase (Homo sapiens).
OUTPUT: 6.59

INPUT: State measured pIC50 of the compound Cn1ccc(C(=O)Nc2ccc3cc2CCc2cccc(c2)Nc2ncc(Cl)c(n2)N3)n1 [Example B31, trifluoroacetate] with Recombinant Human Anaplastic Lymphoma Kinase (Homo sapiens).
OUTPUT: < 5.00

INPUT: State measured pIC50 of the compound Cc1noc(C)c1S(=O)(=O)Nc1ccc2cc1CCc1cccc(c1)Nc1ncc(Cl)c(n1)N2 [Example B152, trifluoroacetate] with Recombinant Human Anaplastic Lymphoma Kinase (Homo sapiens).
OUTPUT: 6.37

INPUT: State measured pIC50 of the compound O=C(Nc1cccc(Cl)c1)c1cc2cc(c1)Nc1nc(ncc1Cl)Nc1cccc(c1)CC2 [Example B13, trifluoroacetate] with Recombinant Human Anaplastic Lymphoma Kinase (Homo sapiens).
OUTPUT: < 6.00

INPUT: State measured pIC50 of the compound Clc1cccc(N2CCN(Cc3cc4cc(c3)Nc3nc(ncc3Cl)Nc3cccc(c3)CC4)CC2)n1 [Example B217, tris(trifluoroacetate)] with Recombinant Human Anaplastic Lymphoma Kinase (Homo sapiens).
OUTPUT: < 5.00

INPUT: State measured pIC50 of the compound CC(C)(C)NC(=O)Nc1ccc2cc1CCc1cccc(c1)Nc1ncc(Cl)c(n1)N2 [Example B87, trifluoroacetate] with Recombinant Human Anaplastic Lymphoma Kinase (Homo sapiens).
OUTPUT: < 6.00

INPUT: State measured pIC50 of the compound O=C(Nc1ccc(Cl)cc1)c1cc2cc(c1)Nc1nc(ncc1Cl)Nc1cccc(c1)CC2 [Example B15, trifluoroacetate] with Recombinant Human Anaplastic Lymphoma Kinase (Homo sapiens).
OUTPUT: < 6.00

---

# target_desc: Recombinant Human Anaplastic Lymphoma Kinase (Homo sapiens, UniProt Q9UM73)
# Construct: purchased Invitrogen, Carlsbad, Calif
# Sequence (Q9UM73 19-1620): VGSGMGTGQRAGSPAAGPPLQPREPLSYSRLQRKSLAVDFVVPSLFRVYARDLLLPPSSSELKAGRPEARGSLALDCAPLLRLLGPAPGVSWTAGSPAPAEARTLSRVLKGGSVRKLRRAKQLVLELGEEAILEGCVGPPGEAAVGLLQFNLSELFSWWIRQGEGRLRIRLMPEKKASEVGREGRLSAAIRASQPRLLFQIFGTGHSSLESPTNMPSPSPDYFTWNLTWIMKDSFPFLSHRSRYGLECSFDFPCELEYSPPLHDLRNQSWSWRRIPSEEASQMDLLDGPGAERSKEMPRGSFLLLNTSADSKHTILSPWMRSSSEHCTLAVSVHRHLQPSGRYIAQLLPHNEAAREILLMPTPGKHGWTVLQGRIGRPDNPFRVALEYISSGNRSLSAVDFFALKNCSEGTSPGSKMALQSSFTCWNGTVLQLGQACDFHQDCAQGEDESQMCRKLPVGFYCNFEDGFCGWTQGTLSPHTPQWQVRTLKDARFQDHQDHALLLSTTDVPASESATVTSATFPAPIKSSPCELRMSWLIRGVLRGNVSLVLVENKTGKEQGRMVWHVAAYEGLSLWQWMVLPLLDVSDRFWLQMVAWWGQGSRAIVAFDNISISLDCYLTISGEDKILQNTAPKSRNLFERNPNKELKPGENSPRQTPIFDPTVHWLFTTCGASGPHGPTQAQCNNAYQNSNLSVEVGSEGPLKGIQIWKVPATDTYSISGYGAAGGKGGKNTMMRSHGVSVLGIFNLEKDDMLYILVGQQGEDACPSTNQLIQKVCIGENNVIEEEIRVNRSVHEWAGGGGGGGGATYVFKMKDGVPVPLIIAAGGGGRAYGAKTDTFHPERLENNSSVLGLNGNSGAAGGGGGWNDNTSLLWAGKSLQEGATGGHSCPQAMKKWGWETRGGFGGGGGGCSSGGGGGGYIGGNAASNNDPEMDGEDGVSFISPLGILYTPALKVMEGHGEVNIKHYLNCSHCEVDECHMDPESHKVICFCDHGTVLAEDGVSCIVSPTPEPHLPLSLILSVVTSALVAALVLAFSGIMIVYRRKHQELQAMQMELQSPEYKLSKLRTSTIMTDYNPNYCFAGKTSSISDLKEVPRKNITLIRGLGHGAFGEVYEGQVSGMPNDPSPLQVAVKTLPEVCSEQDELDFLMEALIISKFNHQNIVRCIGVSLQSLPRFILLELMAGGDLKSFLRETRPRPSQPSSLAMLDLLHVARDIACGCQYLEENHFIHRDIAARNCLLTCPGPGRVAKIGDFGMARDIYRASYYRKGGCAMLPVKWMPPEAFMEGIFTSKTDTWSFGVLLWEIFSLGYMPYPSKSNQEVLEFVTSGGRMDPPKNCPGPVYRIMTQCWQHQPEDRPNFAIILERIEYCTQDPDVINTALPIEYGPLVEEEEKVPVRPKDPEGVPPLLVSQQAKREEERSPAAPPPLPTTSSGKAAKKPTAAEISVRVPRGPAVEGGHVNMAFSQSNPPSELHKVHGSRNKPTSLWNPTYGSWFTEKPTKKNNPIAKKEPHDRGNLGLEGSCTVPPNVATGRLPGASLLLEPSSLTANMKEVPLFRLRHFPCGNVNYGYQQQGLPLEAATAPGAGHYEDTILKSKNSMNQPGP
# procedure_summary: ALK HTRF kinase assay
# Type: biochemical
# settings: Table D1; 90 μM ATP
Counter-ions that a name gives are not always drawn.
Would you mind telling me the reported pIC50 of each entry?
Entry type: numeric. Quantity: pIC50, the -log10 of concentration in molar units.

INPUT: Find the measured pIC50 of O=S1(=O)Cc2cccc(c2)Nc2nc(ncc2Cl)Nc2cccc1c2 [Example D4, trifluoroacetate] and report it.
OUTPUT: 6.11

INPUT: Find the measured pIC50 of CS(=O)(=O)N1CCN(c2ccc(-c3cc4cc(c3)Nc3ncc(Cl)c(n3)Nc3cccc(c3)OCC4)cn2)CC1 [Example D38, bis(trifluoroacetate)] and report it.
OUTPUT: 6.35

INPUT: Find the measured pIC50 of Clc1cnc2nc1Nc1cccc(c1)OCCc1cc(cc(-c3cccnc3)c1)N2 [Example D26, bis(trifluoroacetate)] and report it.
OUTPUT: 6.86

INPUT: Find the measured pIC50 of NC(=O)N1CCN(c2ccc(-c3cc4cc(c3)Nc3ncc(Cl)c(n3)Nc3cccc(c3)OCC4)cn2)CC1 [Example D40, bis(trifluoroacetate)] and report it.
OUTPUT: 6.74

INPUT: Find the measured pIC50 of CC(=O)N1CCN(c2cc(-c3cc4cc(c3)Nc3ncc(Cl)c(n3)Nc3cccc(c3)OCC4)ccn2)CC1 [Example D35, bis(trifluoroacetate)] and report it.
OUTPUT: 6.82

INPUT: Find the measured pIC50 of Clc1cnc2nc1Nc1cccc(c1)NCCOc1cccc(c1)N2 [Example D72, bis(trifluoroacetate)] and report it.
OUTPUT: 6.11

INPUT: Find the measured pIC50 of O=C(Cc1ccccc1)Nc1cc2cc(c1)OCCSc1cccc(c1)Nc1nc(ncc1Cl)N2 [Example D64, trifluoroacetate] and report it.
OUTPUT: 6.35

INPUT: Find the measured pIC50 of Clc1cnc2nc1Nc1cccc(c1)CCSc1cccc(c1)N2 [Example D19, hydrochloride] and report it.
OUTPUT: 6.25

INPUT: Find the measured pIC50 of Clc1cnc2nc1Nc1cccc(c1)SCCNc1cccc(c1)N2 [Example D80, bis(trifluoroacetate)] and report it.
OUTPUT: 6.24
